# ASSAYED SYSTEM: Bbp^273−598 (Staphylococcus aureus)
# Construct: covering residues Asn^273–Pro^598 of Bbp from S. aureus; GST (cleaved; GPLGS remains at the N-terminus) (N, cleaved yes); made in house; host or cells: Escherichia coli BL21
# Sequence (Q14U76 273-598): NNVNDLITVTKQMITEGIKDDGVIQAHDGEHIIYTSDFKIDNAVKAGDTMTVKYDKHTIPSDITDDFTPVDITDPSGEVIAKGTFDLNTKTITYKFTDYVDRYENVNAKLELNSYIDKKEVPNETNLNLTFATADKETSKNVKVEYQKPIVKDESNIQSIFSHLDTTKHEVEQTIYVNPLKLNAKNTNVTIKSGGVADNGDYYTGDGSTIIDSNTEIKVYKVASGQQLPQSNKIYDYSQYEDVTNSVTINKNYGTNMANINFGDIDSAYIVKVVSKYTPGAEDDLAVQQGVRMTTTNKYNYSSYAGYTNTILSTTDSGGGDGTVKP
# TEST: Isothermal titration calorimetry (ITC), Fg α^561−575 titrated into Bbp^273−598
# Format: binding
# CONDITION PARAMETERS: 25°C, Microcal iTC200, cell 50 μmol/L Bbp^273−598, syringe 500 μmol/L peptide, 200 mmol/L NaCl, 20 mmol/L HEPES pH 7.5, first peak not used for analysis
Where no end group is shown, it is not given here.
MEASURE NAME: pKd
Recall that pKd is obtained by taking minus log10 of the concentration measured in molar.

Entry SKQFTSSTSYNRGDS [Fg α^561−575] : reported pKd = ?
6.54
